SYSTEM: KDR VEGF-receptor tyrosine kinase (Homo sapiens, UniProt P35968)
Sequence (P35968 834-1162 limits assumed): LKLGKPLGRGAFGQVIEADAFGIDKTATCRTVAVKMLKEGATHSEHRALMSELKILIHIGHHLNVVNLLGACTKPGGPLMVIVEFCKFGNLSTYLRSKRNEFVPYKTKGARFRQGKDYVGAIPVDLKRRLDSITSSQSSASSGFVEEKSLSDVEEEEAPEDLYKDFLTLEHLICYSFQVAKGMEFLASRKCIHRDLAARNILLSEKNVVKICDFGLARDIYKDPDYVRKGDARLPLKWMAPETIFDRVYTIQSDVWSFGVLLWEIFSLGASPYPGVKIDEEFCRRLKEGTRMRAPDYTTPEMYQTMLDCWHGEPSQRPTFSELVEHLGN
Mark each entry met if its IC50 sits below 0.08 µM, and not met for all others.

{"columns": ["COMPOUND", "SYSTEM", "LABEL_CLASS"],
 "data": [
  ["FC(F)(F)c1cc(Nc2ncc(CCc3cccnc3)c3ccccc23)ccc1Cl", "KDR VEGF-receptor tyrosine kinase (Homo sapiens, UniProt P35968)", "met"],
  ["CCc1ccc(Nc2ncc(Cc3ccc(O)nc3)c3ccccc23)cc1Br [Example 34g]", "KDR VEGF-receptor tyrosine kinase (Homo sapiens, UniProt P35968)", "not met"],
  ["Nc1cc(Cl)cc(C(F)(F)F)c1 [Example 7, 5-amino-3-chloro-benzotrifluoride]", "KDR VEGF-receptor tyrosine kinase (Homo sapiens, UniProt P35968)", "not met"],
  ["FC(F)(F)c1cc(Nc2ncc(CCc3cccnc3)c3ccccc23)cc(C(F)(F)F)c1", "KDR VEGF-receptor tyrosine kinase (Homo sapiens, UniProt P35968)", "not met"],
  ["CC(C)[C@H]1CC[C@H](Nc2ncc(Cc3ccc(O)nc3)c3ccccc23)CC1 [29 (E isomer)]", "KDR VEGF-receptor tyrosine kinase (Homo sapiens, UniProt P35968)", "not met"],
  ["FC(F)(F)c1ccc(Nc2ncc(CCc3cccnc3)c3ccccc23)cc1C(F)(F)F", "KDR VEGF-receptor tyrosine kinase (Homo sapiens, UniProt P35968)", "met"],
  ["Clc1ccc(Nc2ncc(CCc3cccnc3)c3ccccc23)cc1", "KDR VEGF-receptor tyrosine kinase (Homo sapiens, UniProt P35968)", "not met"],
  ["CCc1ccc(Nc2ncc(Cc3ccc(O)nc3)c3ncccc23)cc1Br [Example 37b]", "KDR VEGF-receptor tyrosine kinase (Homo sapiens, UniProt P35968)", "not met"],
  ["Cc1ccc(Nc2ncc(/C=C\\c3cccnc3)c3ccccc23)cc1Br", "KDR VEGF-receptor tyrosine kinase (Homo sapiens, UniProt P35968)", "met"],
  ["CC(C)(C)[C@H]1CC[C@H](Nc2ncc(CCc3cccnc3)c3ccccc23)CC1 [16 (E isomer)]", "KDR VEGF-receptor tyrosine kinase (Homo sapiens, UniProt P35968)", "not met"],
  ["Cc1cc(Nc2ncc(CCc3cccnc3)c3ccccc23)ccc1C(C)C", "KDR VEGF-receptor tyrosine kinase (Homo sapiens, UniProt P35968)", "met"],
  ["Cc1ccc(Nc2ncc(/C=C/c3cccnc3)c3ccccc23)cc1Br", "KDR VEGF-receptor tyrosine kinase (Homo sapiens, UniProt P35968)", "not met"],
  ["CC(C)(C)c1cccc(Nc2ncc(CCc3cccnc3)c3ccccc23)c1", "KDR VEGF-receptor tyrosine kinase (Homo sapiens, UniProt P35968)", "met"]
]}

###

# maps each entry to its melting point
OBSERVATION_TYPE: melting point

{"columns": ["MOLECULE", "OBSERVATION_TYPE", "MEASURED_VALUE"],
 "data": [
  ["CC(C)(C)c1cccc(Nc2ncc(CCc3cccnc3)c3ccccc23)c1", "melting point", "133 to 134 °C"],
  ["Cc1nc(Nc2cccc(C(F)(F)F)c2)c2ccccc2c1Cc1ccc(Cl)nc1 [Example 45a]", "melting point", "137 °C"],
  ["CCc1ccc(Nc2ncc(CCc3cccnc3)c3ccccc23)cc1Br", "melting point", "119 °C"],
  ["FC(F)(F)c1cc(Nc2ncc(CCc3cccnc3)c3ccccc23)cc(C(F)(F)F)c1", "melting point", "174 °C"],
  ["FC(F)(F)c1cc(Nc2ncc(CCc3cccnc3)c3ccccc23)ccc1Cl", "melting point", "159 °C"],
  ["Cc1cc(Nc2ncc(CCc3cccnc3)c3ccccc23)ccc1C(C)C", "melting point", "133 to 134 °C"],
  ["CC(C)[C@H]1CC[C@H](Nc2ncc(Cc3ccc(O)nc3)c3ncccc23)CC1", "melting point", "232 to 235 °C"],
  ["Clc1ccc(Nc2ncc(CCc3cccnc3)c3ccccc23)cc1", "melting point", "157 to 158 °C"],
  ["CC(C)(C)[C@H]1CC[C@H](Nc2ncc(CCc3cccnc3)c3ccccc23)CC1 [16 (E isomer)]", "melting point", "124 to 125 °C"],
  ["Cc1ccc(Nc2ncc(/C=C/c3cccnc3)c3ccccc23)cc1Br", "melting point", "196 to 197 °C"],
  ["FC(F)(F)c1ccc(Nc2ncc(CCc3cccnc3)c3ccccc23)cc1C(F)(F)F", "melting point", "124 to 125 °C"],
  ["CCc1ccc(Nc2ncc(CCc3ccc(C)nc3)c3ccccc23)cc1Br", "melting point", "103 to 105 °C"],
  ["CC(C)(C)c1ccc(Nc2ncc(CCc3cccnc3)c3ccccc23)cc1", "melting point", "81 °C"],
  ["CCc1ccc(Nc2ncc(Cc3ccc(OC)nc3)c3ncccc23)cc1Br [Example 37a]", "melting point", "142 to 146 °C"]
]}
